biological target: Substance-P receptor (Homo sapiens, UniProt P25103)
Sequence (P25103 whole entry): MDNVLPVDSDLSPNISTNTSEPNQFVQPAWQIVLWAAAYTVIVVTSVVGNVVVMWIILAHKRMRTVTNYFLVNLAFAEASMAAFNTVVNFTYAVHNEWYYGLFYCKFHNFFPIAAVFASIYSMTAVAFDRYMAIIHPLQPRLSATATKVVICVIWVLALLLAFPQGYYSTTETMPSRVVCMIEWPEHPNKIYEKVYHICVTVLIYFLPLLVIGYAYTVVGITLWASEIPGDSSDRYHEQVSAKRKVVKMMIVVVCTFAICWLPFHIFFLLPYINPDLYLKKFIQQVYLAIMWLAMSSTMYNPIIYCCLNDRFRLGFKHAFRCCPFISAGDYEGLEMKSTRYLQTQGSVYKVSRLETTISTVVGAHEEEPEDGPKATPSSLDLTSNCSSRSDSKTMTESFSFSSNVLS
pKd: −log10 of the molar value.
Response key: true means pKd >= 6; false means pKd < 6.

1. CCCC[P+](CCCC)(CCCC)Cc1ccc(NC(=O)[C@@H](Cc2ccc3ccccc3c2)N=C(NC2CCCCC2)NC2CCCCC2)cc1 : true
2. CCCC[N+](CCCC)(CCCC)Cc1ccc(NC(=O)[C@H](Cc2ccc3ccccc3c2)N=C(NC2CCCCC2)NC2CCCCC2)cc1 : true
3. NCc1ccc(NC(=O)[C@H](Cc2ccc3ccccc3c2)N=C(NC2CCCCC2)NC2CCCCC2)c(C(=O)O)c1 : false

====

Below is a list of entries, each paired with its recorded Kd value.
experiment: Binding affinity towards human Bradykinin receptor, activity expressed as Kd
assay-endpoint: Kd (nM)

1) CCCC[N+](CCCC)(CCCC)Cc1ccc(NC(=O)[C@H](Cc2ccc3ccccc3c2)N=C(NC2CCCCC2)NC2CCCCC2)cc1 : 98
2) O=C(Nc1ccc(CO)cc1)[C@H](Cc1ccc2ccccc2c1)N/C(=N/C1CCCCC1)NC1CCCCC1 : 2100
3) CC/N=C(\NCC)NCc1ccc(NC(=O)[C@H](Cc2ccc3ccccc3c2)N=C(NC2CCCCC2)NC2CCCCC2)cc1 : 460
4) CCCC[N+](CCCC)(CCCC)Cc1ccc(NC(=O)[C@@H](Cc2ccc3ccccc3c2)N=C(NC2CCCCC2)NC2CCCCC2)cc1 : 79
5) O=C(Nc1ccc(CO)cc1)[C@@H](Cc1ccc2ccccc2c1)N=C(NC1CCCCC1)NC1CCCCC1 : 1500
6) N=C(N)NCc1ccc(NC(=O)[C@@H](Cc2ccc3ccccc3c2)N=C(NC2CCCCC2)NC2CCCCC2)cc1 : 200
7) CCCC[P+](CCCC)(CCCC)Cc1ccc(NC(=O)[C@H](Cc2ccc3ccccc3c2)N=C(NC2CCCCC2)NC2CCCCC2)cc1 : 340
8) NCc1ccc(NC(=O)[C@H](Cc2ccc3ccccc3c2)N=C(NC2CCCCC2)NC2CCCCC2)c(C(=O)O)c1 : 690

====

target: Substance-P receptor (Homo sapiens)
pKd: −log10 of the molar value.
Below is a list of entries, each paired with its recorded pKd value.
assay-endpoint: pKd

1) N=C(N)NCc1ccc(NC(=O)[C@H](Cc2ccc3ccccc3c2)N=C(NC2CCCCC2)NC2CCCCC2)cc1 : 5.96
2) NC(N)=NCCC[C@H](N)C(=O)NCc1ccc(NC(=O)[C@H](Cc2ccc3ccccc3c2)N=C(NC2CCCCC2)NC2CCCCC2)cc1 : 5.82
3) CCCC[P+](CCCC)(CCCC)Cc1ccc(NC(=O)[C@H](Cc2ccc3ccccc3c2)NC(=O)NC2CCCCC2)cc1 : 5.89
4) N=C(N)NCc1ccc(NC(=O)[C@@H](Cc2ccc3ccccc3c2)N=C(NC2CCCCC2)NC2CCCCC2)cc1 : 6.07
